Assay Text: Inhibition of bovine pancreatic trypsin using chromogenic N-alpha-bemzoyl-arginine ethyl ester hydrochloride as substrate pre-incubated for 10 mins by spectrophotometry
Set-up: species or system Bos taurus
pKi: −log10 of the molar value.
Reported pKi values are given for each entry in this list.

>  <Chemical String>
O=[N+]([O-])c1cccc(/C=C/S(=O)(=O)Nc2cccc(OCc3cn(Cc4nc5ccccc5s4)nn3)c2)c1

>  <pKi>
3.73

$$$$
>  <Chemical String>
O=[N+]([O-])c1cccc(/C=C/S(=O)(=O)Nc2cccc(OCc3cn(Cc4cc5ccccc5s4)nn3)c2)c1

>  <pKi>
3.91

$$$$
>  <Chemical String>
O=S(=O)(/C=C/c1cccc(C(F)(F)F)c1)Nc1cccc(OCc2cn(Cc3cc4ccccc4s3)nn2)c1

>  <pKi>
3.90

$$$$
>  <Chemical String>
O=S(=O)(/C=C/c1cccc(Cl)c1)Nc1cccc(OCc2cn(Cc3cc4ccccc4s3)nn2)c1

>  <pKi>
3.14

$$$$
>  <Chemical String>
O=S(=O)(/C=C/c1cccc(F)c1)Nc1cccc(OCc2cn(Cc3cc4ccccc4s3)nn2)c1

>  <pKi>
3.92

$$$$
>  <Chemical String>
Nc1cccc(/C=C/S(=O)(=O)Nc2cccc(OCc3cn(Cc4cc5ccccc5s4)nn3)c2)c1

>  <pKi>
4.15

$$$$

---

Organism: Homo sapiens
Assay Text: Inhibition of human tryptase assessed as residual enzyme activity using chromogenic H-D-HHT-Ala-Arg-pNA 2AcOH as substrate at 10 uM pre-incubated for 10 mins measured for 30 mins by spectrophotometry relative to untreated control

>  <Chemical String>
O=S(=O)(/C=C/c1cccc(Cl)c1)Nc1cccc(OCc2cn(Cc3cccnc3)nn2)c1

>  <Ratio>
0.99

$$$$
>  <Chemical String>
O=S(=O)(/C=C/c1cccc(Cl)c1)Nc1cccc(-c2nnn(Cc3cccc(Cl)c3)n2)c1

>  <Ratio>
1

$$$$
>  <Chemical String>
O=[N+]([O-])c1cccc(/C=C/S(=O)(=O)Nc2cccc(-c3nnn(Cc4cccc(Cl)c4)n3)c2)c1

>  <Ratio>
1

$$$$
>  <Chemical String>
O=S(=O)(/C=C/c1cccc(Cl)c1)Nc1cccc(OCc2cn(Cc3nc4ccccc4s3)nn2)c1

>  <Ratio>
0.98

$$$$
>  <Chemical String>
O=S(=O)(/C=C/c1cccc(F)c1)Nc1cccc(-c2nnn(Cc3cccc(Cl)c3)n2)c1

>  <Ratio>
0.97

$$$$
>  <Chemical String>
O=[N+]([O-])c1cccc(/C=C/S(=O)(=O)Nc2cccc(OCc3cn(Cc4cc5ccccc5[nH]4)nn3)c2)c1

>  <Ratio>
0.98

$$$$

---

Reported Ratio values are given for each entry in this list.
Target Entity: Chymase (Homo sapiens)
Assay Text: Inhibition of human chymase assessed as residual enzyme activity using chromogenic N-succinyl-Ala-Ala-Pro-Phe p-nitroanilide as substrate at 10 uM pre-incubated for 10 mins by spectrophotometry relative to untreated control
Type: single protein
Outcome Measure: Ratio

>  <Chemical String>
O=S(=O)(/C=C/c1cccc(Cl)c1)Nc1cccc(OCc2cn(Cc3ccccc3)nn2)c1

>  <Outcome Measure>
Ratio

>  <Data Value>
1

$$$$
>  <Chemical String>
O=S(=O)(/C=C/c1cccc(Cl)c1)Nc1cccc(OCc2cn(Cc3ccsc3Br)nn2)c1

>  <Outcome Measure>
Ratio

>  <Data Value>
0.96

$$$$
>  <Chemical String>
O=[N+]([O-])c1cccc(/C=C/S(=O)(=O)Nc2cccc(OCc3cn(Cc4cc5ccccc5[nH]4)nn3)c2)c1

>  <Outcome Measure>
Ratio

>  <Data Value>
1

$$$$
>  <Chemical String>
CS(=O)(=O)Nc1cccc(-c2nnn(Cc3cccc(Cl)c3)n2)c1

>  <Outcome Measure>
Ratio

>  <Data Value>
0.95

$$$$
>  <Chemical String>
O=S(=O)(/C=C/c1cccc(Br)c1)Nc1cccc(-c2nnn(Cc3cccc(Cl)c3)n2)c1

>  <Outcome Measure>
Ratio

>  <Data Value>
0.95

$$$$
>  <Chemical String>
COc1cccc(/C=C/S(=O)(=O)Nc2cccc(-c3nnn(Cc4cccc(Cl)c4)n3)c2)c1

>  <Outcome Measure>
Ratio

>  <Data Value>
1

$$$$
>  <Chemical String>
O=[N+]([O-])c1cccc(/C=C/S(=O)(=O)Nc2cccc(OCc3cn(Cc4nc5ccccc5s4)nn3)c2)c1

>  <Outcome Measure>
Ratio

>  <Data Value>
0.95

$$$$
>  <Chemical String>
O=S(=O)(/C=C/c1cccc(Cl)c1)Nc1cccc(OCc2cn(Cc3ccsc3)nn2)c1

>  <Outcome Measure>
Ratio

>  <Data Value>
0.99

$$$$
>  <Chemical String>
O=S(=O)(/C=C/c1cccc(F)c1)Nc1cccc(-c2nnn(Cc3cccc(Cl)c3)n2)c1

>  <Outcome Measure>
Ratio

>  <Data Value>
0.91

$$$$

Reference for the values: ChEMBL document CHEMBL1821717
